- target under test: Nanoluciferase-BRD9 fusion protein (3×FLAG-NLuc-BRD9) in SYO-1 cells (Homo sapiens (Human))
- Sequence (Q9H8M2 whole entry, the tested form may be a part): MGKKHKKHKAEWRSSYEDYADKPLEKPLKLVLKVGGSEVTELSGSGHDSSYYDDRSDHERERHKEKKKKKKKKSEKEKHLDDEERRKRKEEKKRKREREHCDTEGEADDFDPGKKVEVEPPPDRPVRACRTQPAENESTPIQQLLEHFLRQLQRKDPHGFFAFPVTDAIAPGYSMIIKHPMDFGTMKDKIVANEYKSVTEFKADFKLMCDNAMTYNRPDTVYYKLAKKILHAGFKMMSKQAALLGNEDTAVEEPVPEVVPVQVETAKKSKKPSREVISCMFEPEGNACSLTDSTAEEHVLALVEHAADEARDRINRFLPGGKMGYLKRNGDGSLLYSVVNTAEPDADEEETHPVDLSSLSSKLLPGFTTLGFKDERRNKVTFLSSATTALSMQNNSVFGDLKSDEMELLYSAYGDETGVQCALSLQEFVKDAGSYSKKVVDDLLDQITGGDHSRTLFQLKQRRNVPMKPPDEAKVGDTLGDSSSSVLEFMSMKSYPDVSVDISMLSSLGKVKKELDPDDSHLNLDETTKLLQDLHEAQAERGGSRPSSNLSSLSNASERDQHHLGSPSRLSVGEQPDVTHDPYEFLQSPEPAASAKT
- test method notes: SYO1 BRD9 NanoLuc degradation assay
- Type: cell-based
- measurement parameters: SYO-1 cells expressing 3×FLAG-NLuc-BRD9, 6 hours incubation, top dose 1 μM
pIC50: −log10 of the molar value.
Parameter: pIC50. Scope: all listed entries.

Below: 3 compounds and their reported pIC50.
{"compound": "CNC(=O)N1CCc2c(-c3cc(OC)c(CN4CC5(CC(N)C5)C4)c(OC)c3)cn(C)c(=O)c2C1 [Compound B22]", "pIC50": "≤ 6.00"}
{"compound": "CNC(=O)N1CCc2c(-c3cc(OC)c(CN4C[C@@H](C)N(CCC5CCN(c6ccc7c(c6)C(=O)N(C6CCC(=O)NC6=O)C7=O)CC5)[C@@H](C)C4)c(OC)c3)cn(C)c(=O)c2C1 (some centres unmarked) [Compound D42]", "pIC50": "> 8.00"}
{"compound": "COc1cc(-c2cn(C)c(=O)c3c2CCN(C(=O)NCC2CC4(CCN(CCCCN5CCN(c6ccc7c(c6)C(=O)N(C6CCC(=O)NC6=O)C7=O)CC5)CC4)O2)C3)cc(OC)c1CN(C)C (centres unmarked) [Compound D193]", "pIC50": "≤ 6.00"}

Reported pIC50 for CNC(=O)N1CCc2c(-c3cc(OC)c(CN4CCC(N5CCN(c6ccc7c(c6)C(=O)N(C6CCC(=O)NC6=O)C7=O)CC5)CC4)c(OC)c3)cn(C)c(=O)c2C1 (centres unmarked) [Compound D201] : what is it? > 8.00

Record request: pIC50 value, item CNC(=O)N1CCc2c(-c3cc(OC)c(CN4CCN(CCC5CCN(c6c(F)c(F)c7c(c6F)C(=O)N(c6ccc(F)cc6F)C7=O)CC5)CC4)c(OC)c3)cn(C)c(=O)c2C1 [DD1] > 8.00
